B1: HDV Ribozyme (parent)
chain: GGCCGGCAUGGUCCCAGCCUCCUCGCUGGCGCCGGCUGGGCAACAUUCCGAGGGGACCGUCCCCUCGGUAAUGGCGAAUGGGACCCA

Variants of: B1
Experiment: self-cleavage, relative activity (ratio to wild type); higher = more cleavage; co-transcriptional
Given measured self-cleavage, output met if it is greater than or equal to 0.3 and not met if not.

# check: self-cleavage of C18U C63G is greater than or equal to 0.3 met

# check: self-cleavage of U12C C26G is greater than or equal to 0.3 met

# check: self-cleavage of G31C G54C is greater than or equal to 0.3 not met

# check: self-cleavage of C14U C44G is greater than or equal to 0.3 met

# check: self-cleavage of A70C C85A is greater than or equal to 0.3 met

# check: self-cleavage of G35A U60G is greater than or equal to 0.3 met

# check: self-cleavage of G39C U69G is greater than or equal to 0.3 not met

# check: self-cleavage of U20G A78G is greater than or equal to 0.3 not met

# check: self-cleavage of G53U G82C is greater than or equal to 0.3 met

# check: self-cleavage of A51U U60A is greater than or equal to 0.3 met

# check: self-cleavage of G35U G53C is greater than or equal to 0.3 met

# check: self-cleavage of A43U C66A is greater than or equal to 0.3 met

# check: self-cleavage of C48U C85A is greater than or equal to 0.3 met

# check: self-cleavage of U69C G73A is greater than or equal to 0.3 met

# check: self-cleavage of G39C C58U is greater than or equal to 0.3 not met

# check: self-cleavage of C15A C86A is greater than or equal to 0.3 met

# check: self-cleavage of G31A A56C is greater than or equal to 0.3 met

# check: self-cleavage of G52A G54U is greater than or equal to 0.3 met

# check: self-cleavage of C7G A83U is greater than or equal to 0.3 not met

# check: self-cleavage of A8G G81C is greater than or equal to 0.3 not met

# check: self-cleavage of C19U G39C is greater than or equal to 0.3 not met

# check: self-cleavage of U27A C85A is greater than or equal to 0.3 met

# check: self-cleavage of C41U A70G is greater than or equal to 0.3 met

# check: self-cleavage of A51G C63A is greater than or equal to 0.3 met

# check: self-cleavage of C14A U46G is greater than or equal to 0.3 met

# check: self-cleavage of C4G A70C is greater than or equal to 0.3 not met

# check: self-cleavage of C19A C75U is greater than or equal to 0.3 not met

# check: self-cleavage of G25C A70G is greater than or equal to 0.3 not met

# check: self-cleavage of U72C A77U is greater than or equal to 0.3 not met

# check: self-cleavage of U46C A87G is greater than or equal to 0.3 met

# check: self-cleavage of G11A G68C is greater than or equal to 0.3 not met

# check: self-cleavage of G76A A83U is greater than or equal to 0.3 met

# check: self-cleavage of G11U U79C is greater than or equal to 0.3 not met

# check: self-cleavage of G53U A71U is greater than or equal to 0.3 met

# check: self-cleavage of C26A G81A is greater than or equal to 0.3 met

# check: self-cleavage of G1A G29A is greater than or equal to 0.3 not met

# check: self-cleavage of C30U A87C is greater than or equal to 0.3 met

# check: self-cleavage of A42C G76U is greater than or equal to 0.3 met

# check: self-cleavage of G38U C62A is greater than or equal to 0.3 met

# check: self-cleavage of C15A G55A is greater than or equal to 0.3 met

# check: self-cleavage of C24U C75A is greater than or equal to 0.3 not met

# check: self-cleavage of G38C G73A is greater than or equal to 0.3 not met

# check: self-cleavage of G55C C62U is greater than or equal to 0.3 met

# check: self-cleavage of U20C U72A is greater than or equal to 0.3 not met

# check: self-cleavage of C24U G82A is greater than or equal to 0.3 not met

# check: self-cleavage of C61A U72C is greater than or equal to 0.3 met

# check: self-cleavage of U23C U37C is greater than or equal to 0.3 met

# check: self-cleavage of G25C U46A is greater than or equal to 0.3 not met

# check: self-cleavage of A42U G81A is greater than or equal to 0.3 not met

# check: self-cleavage of U9A G53C is greater than or equal to 0.3 met

# check: self-cleavage of U20C C58A is greater than or equal to 0.3 not met

# check: self-cleavage of A16G C26A is greater than or equal to 0.3 met

# check: self-cleavage of C22G C41G is greater than or equal to 0.3 not met

# check: self-cleavage of G1A G2C is greater than or equal to 0.3 not met

# check: self-cleavage of C33A U60G is greater than or equal to 0.3 not met

# check: self-cleavage of C30A C84G is greater than or equal to 0.3 not met

# check: self-cleavage of C30G U72G is greater than or equal to 0.3 not met

# check: self-cleavage of G55C G73C is greater than or equal to 0.3 met

# check: self-cleavage of C24A C36G is greater than or equal to 0.3 not met

# check: self-cleavage of A78G G81C is greater than or equal to 0.3 not met

# check: self-cleavage of A56U A77U is greater than or equal to 0.3 met

# check: self-cleavage of G68U C86G is greater than or equal to 0.3 met

# check: self-cleavage of G39C A70G is greater than or equal to 0.3 not met

# check: self-cleavage of C18U C41A is greater than or equal to 0.3 met

# check: self-cleavage of A8C G40U is greater than or equal to 0.3 met

# check: self-cleavage of A16C G34U is greater than or equal to 0.3 not met

# check: self-cleavage of C30U C44G is greater than or equal to 0.3 not met

# check: self-cleavage of C33A G68U is greater than or equal to 0.3 not met

# check: self-cleavage of G1C G68C is greater than or equal to 0.3 not met

# check: self-cleavage of A8U A45G is greater than or equal to 0.3 met

# check: self-cleavage of G28U G81U is greater than or equal to 0.3 not met

# check: self-cleavage of G76C A78U is greater than or equal to 0.3 met

# check: self-cleavage of G34C G52A is greater than or equal to 0.3 not met

# check: self-cleavage of G31U A42C is greater than or equal to 0.3 not met

# check: self-cleavage of U20C U72C is greater than or equal to 0.3 not met

# check: self-cleavage of "C63A" is greater than or equal to 0.3 met

# check: self-cleavage of C62U A87C is greater than or equal to 0.3 met

# check: self-cleavage of G34A G80A is greater than or equal to 0.3 not met

Taken from the RNAGym collection of RNA variant scans (doi:10.7554/elife.80360).
